# Tested on: THRa homodimer (NR concentration 90 nM)
# PROTOCOL NOTES: PBM binding z-score (relative to random genomic background probes); higher = stronger binding; sequences stand for … in GC…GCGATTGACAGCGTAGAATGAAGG
Assign 1 whenever PBM binding z-score does not fall below 0.2; assign -1 whenever it does.

Query :: Test whether the sequence `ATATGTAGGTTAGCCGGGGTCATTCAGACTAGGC` records PBM binding z-score of 0.2 or higher.
Result :: 1

Query :: Input `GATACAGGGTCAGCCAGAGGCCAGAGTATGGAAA`
Result :: 1

Query :: Input `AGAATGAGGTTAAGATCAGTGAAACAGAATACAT`
Result :: 1

Query :: Input `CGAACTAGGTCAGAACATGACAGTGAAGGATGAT`
Result :: -1

Query :: Input `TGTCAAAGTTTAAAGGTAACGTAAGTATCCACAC`
Result :: -1

Query :: Input `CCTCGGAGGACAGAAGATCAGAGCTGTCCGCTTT`
Result :: -1

Query :: Input `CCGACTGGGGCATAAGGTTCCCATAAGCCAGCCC`
Result :: -1

Query :: Input `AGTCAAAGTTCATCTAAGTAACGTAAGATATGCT`
Result :: -1

Query :: Input `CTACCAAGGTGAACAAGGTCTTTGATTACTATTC`
Result :: 1

Query :: Input `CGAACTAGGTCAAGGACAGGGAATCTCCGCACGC`
Result :: 1

Query :: Input `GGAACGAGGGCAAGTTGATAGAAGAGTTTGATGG`
Result :: -1

Query :: Input `TAGCCTAGGTCAGATCGGGCCAGAATACGCTATA`
Result :: -1

Query :: Input `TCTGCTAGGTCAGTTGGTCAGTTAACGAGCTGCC`
Result :: 1

Query :: Input `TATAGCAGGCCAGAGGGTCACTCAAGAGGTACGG`
Result :: -1

Query :: Input `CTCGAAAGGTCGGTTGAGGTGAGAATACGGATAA`
Result :: 1

Query :: Input `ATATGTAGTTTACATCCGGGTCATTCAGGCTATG`
Result :: 1

Query :: Input `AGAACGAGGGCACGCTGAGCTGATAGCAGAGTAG`
Result :: -1

Query :: Input `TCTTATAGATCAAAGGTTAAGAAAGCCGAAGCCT`
Result :: -1

Query :: Input `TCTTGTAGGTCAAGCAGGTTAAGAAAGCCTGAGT`
Result :: 1

Query :: Input `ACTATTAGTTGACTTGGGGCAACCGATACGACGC`
Result :: 1

Query :: Input `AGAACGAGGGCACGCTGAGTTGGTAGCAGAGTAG`
Result :: -1

Query :: Input `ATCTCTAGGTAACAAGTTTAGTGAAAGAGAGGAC`
Result :: 1

Query :: Input `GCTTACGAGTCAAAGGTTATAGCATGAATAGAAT`
Result :: -1

Query :: Input `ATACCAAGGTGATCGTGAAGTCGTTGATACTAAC`
Result :: 1

Query :: Input `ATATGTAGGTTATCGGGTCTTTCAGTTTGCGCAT`
Result :: 1

Query :: Input `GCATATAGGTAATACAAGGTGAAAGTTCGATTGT`
Result :: 1

Query :: Input `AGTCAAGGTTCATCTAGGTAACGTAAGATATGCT`
Result :: 1

Query :: Input `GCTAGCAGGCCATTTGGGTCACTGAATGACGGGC`
Result :: 1

Query :: Input `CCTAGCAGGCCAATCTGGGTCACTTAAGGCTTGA`
Result :: 1

Query :: Input `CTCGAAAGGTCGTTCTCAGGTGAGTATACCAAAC`
Result :: 1

Query :: Input `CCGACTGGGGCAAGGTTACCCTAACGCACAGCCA`
Result :: 1

Query :: Input `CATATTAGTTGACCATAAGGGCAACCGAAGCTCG`
Result :: 1

Query :: Input `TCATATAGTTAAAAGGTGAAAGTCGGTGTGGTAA`
Result :: 1

Query :: Input `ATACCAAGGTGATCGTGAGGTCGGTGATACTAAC`
Result :: 1

Query :: Input `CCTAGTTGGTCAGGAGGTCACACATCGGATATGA`
Result :: 1

Query :: Input `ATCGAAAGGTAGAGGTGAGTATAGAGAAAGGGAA`
Result :: 1

Query :: Input `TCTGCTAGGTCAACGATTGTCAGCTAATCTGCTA`
Result :: 1

Query :: Input `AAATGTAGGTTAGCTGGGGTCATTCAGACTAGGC`
Result :: 1

Query :: Input `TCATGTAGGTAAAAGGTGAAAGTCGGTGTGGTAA`
Result :: 1

Query :: Input `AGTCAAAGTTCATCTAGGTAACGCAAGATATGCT`
Result :: 1

Query :: Input `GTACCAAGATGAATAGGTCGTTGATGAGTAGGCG`
Result :: -1

Query :: Input `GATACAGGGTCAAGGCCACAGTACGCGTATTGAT`
Result :: 1

Query :: Input `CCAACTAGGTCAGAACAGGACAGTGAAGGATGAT`
Result :: 1

Query :: Input `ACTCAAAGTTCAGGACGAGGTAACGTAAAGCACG`
Result :: 1

Query :: Input `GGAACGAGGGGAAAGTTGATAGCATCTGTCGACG`
Result :: -1

Query :: Input `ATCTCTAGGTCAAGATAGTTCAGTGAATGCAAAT`
Result :: 1

Query :: Input `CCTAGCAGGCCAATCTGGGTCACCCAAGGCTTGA`
Result :: 1

Query :: Input `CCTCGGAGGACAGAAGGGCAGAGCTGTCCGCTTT`
Result :: -1

Query :: Input `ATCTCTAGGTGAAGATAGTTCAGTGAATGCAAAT`
Result :: -1

Query :: Input `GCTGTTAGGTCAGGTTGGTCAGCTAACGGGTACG`
Result :: 1
